For each record, write down the corresponding Activity.
Target: Gonadotropin-releasing hormone receptor (Rattus norvegicus)
Test: In vitro inhibition of LH release determined in rat pituitary cells at a dose of 3 ug of analogue and 1 ng of LHRH
Assay type: functional, cell-based
Conditions: Pituitary gland cell
Square brackets hold non-standard residues; d marks the D form. Peptide text beside a SMILES is read from it. 2Nal = N[C@@H](Cc1ccc2ccccc2c1)C(=O)O
Just the number.

Entry under test: CC(=O)N[C@@H](Cc1ccc2ccccc2c1)C(=O)NC(CCCCNC(=O)c1ccccn1)C(=O)N[C@@H](CCCCNC(=O)c1ccccn1)C(=O)NC(CCCN=C(N)N)C(=O)NC(C)C(N)=O (stereo in doubt) . Its Activity was 158

Activity reading for CC(=O)N[C@H](Cc1ccc2ccccc2c1)C(=O)N[C@@H](CO)C(=O)N[C@@H](CCCCNC(=O)c1ccccn1)C(=O)N[C@H](CCCCNC(=O)c1ccccn1)C(=O)N[C@@H](CC(C)C)C(=O)N[C@@H](CCCN=C(N)N)C(=O)N1CCC[C@H]1C(=O)N[C@H](C)C(N)=O : 8

compound CCNC(=O)[C@@H]1CCCN1C(=O)[C@H](CCCN=C(N)N)NC(=O)[C@H](CC(C)C)NC(=O)[C@H](Cc1ccc2ccccc2c1)NC(=O)[C@H](Cc1ccc2ccccc2c1)NC(C)=O (Ac-[2Nal][2Nal]LRP-NHEt) , Activity observed: 158

Activity reading for CCNC(=O)[C@@H]1CCCN1C(=O)[C@H](CC(C)C)NC(=O)[C@H](Cc1ccc2ccccc2c1)NC(=O)[C@H](Cc1ccc(O)cc1)NC(=O)[C@H](CO)NC(=O)[C@H](Cc1ccc2ccccc2c1)NC(C)=O (Ac-[2Nal]SY[2Nal]LP-NHEt) : 151

The measured values listed here are drawn from ChEMBL document CHEMBL1128487.
